target: UniProt P33905; assay: cell-based; format: cell-based; set-up: and Agrobacterium tumefaciens WCF (pCF372); endogenous in cells; host or cells: Agrobacterium tumefaciens WCF (pCF372); settings: thiolactone libraries; A. tumefaciens; synthetic ligands tested at 10 μM
Sequence (P33905 whole entry): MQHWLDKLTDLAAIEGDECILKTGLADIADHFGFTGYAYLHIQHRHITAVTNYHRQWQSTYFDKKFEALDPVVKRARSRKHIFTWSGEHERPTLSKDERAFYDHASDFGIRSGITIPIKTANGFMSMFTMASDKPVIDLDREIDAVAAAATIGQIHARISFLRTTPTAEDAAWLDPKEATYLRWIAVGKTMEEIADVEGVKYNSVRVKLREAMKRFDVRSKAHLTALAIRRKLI
Everything with Inhib % lower than 30% is false; everything else, including exactly 30%, is true.

Some entries whose results are on file:
{"COMPOUND": "O=C(Cc1ccc(-c2ccccc2)cc1)N[C@H]1CCSC1=O [Compound 23E]", "GROUP": "false"}
{"COMPOUND": "CCCCCCCCCCCC(=O)N[C@H]1CCSC1=O [Compound 25E]", "GROUP": "false"}
{"COMPOUND": "CCCCCCCCCC(=O)CC(=O)NC1CCSC1=O (stereo not shown) [Compound 1]", "GROUP": "true"}

Request: Does the reported Inhib % for O=C(Cc1ccc(Br)cc1)N[C@H]1CCSC1=O [Compound 18E] fall at or above the 30% mark?
Response: false

Request: Does the reported Inhib % for O=C(Cc1ccccc1)NC1CCSC1=O (racemic) [Compound 21] fall at or above the 30% mark?
Response: false

Request: Does the reported Inhib % for O=C(CCc1c[nH]c2ccccc12)NC1CCSC1=O (racemic) [Compound 22] fall at or above the 30% mark?
Response: false

Request: Does the reported Inhib % for CCCCCCC(=O)N[C@H]1CCSC1=O [Compound 27E] fall at or above the 30% mark?
Response: true

Request: Does the reported Inhib % for COc1ccc(CC(=O)NC2CCSC2=O)cc1 (racemic) [Compound 20] fall at or above the 30% mark?
Response: false

Request: Does the reported Inhib % for O=C(Cc1cccc([N+](=O)[O-])c1)NC1CCSC1=O (racemic) [Compound 19] fall at or above the 30% mark?
Response: true

Request: Does the reported Inhib % for COc1ccc(CC(=O)N[C@H]2CCSC2=O)cc1 [Compound 20E] fall at or above the 30% mark?
Response: false

Request: Does the reported Inhib % for CCCC(=O)N[C@H]1CCSC1=O [Compound 29E] fall at or above the 30% mark?
Response: false

Request: Does the reported Inhib % for O=C(Cc1ccccc1)N[C@H]1CCSC1=O [Compound 21E] fall at or above the 30% mark?
Response: false

Request: Does the reported Inhib % for CCCC(=O)CC(=O)N[C@H]1CCSC1=O [Compound 30E] fall at or above the 30% mark?
Response: true

Request: Does the reported Inhib % for O=C(Cc1ccc(-c2ccccc2)cc1)NC1CCSC1=O (racemic) [Compound 23] fall at or above the 30% mark?
Response: false

Request: Does the reported Inhib % for CCCCCCCC(=O)N[C@H]1CCSC1=O [Compound 26E] fall at or above the 30% mark?
Response: true

Request: Does the reported Inhib % for CCCCCC(=O)CC(=O)N[C@H]1CCSC1=O [Compound 24E] fall at or above the 30% mark?
Response: false

Request: Does the reported Inhib % for O=C(Cc1ccc(Br)cc1)NC1CCSC1=O (racemic) [Compound 18] fall at or above the 30% mark?
Response: false

Request: Does the reported Inhib % for CCCCCC(=O)N[C@H]1CCSC1=O [Compound 28E] fall at or above the 30% mark?
Response: false
